Tested on: Listeria monocytogenes
Test: Antibacterial activity against Listeria monocytogenes by CLSI M100-S18 method
Type: functional
MEASUREMENT KIND: MIC50 (µg/mL)
Give just the numeric value; µg/mL need not be written.

Example cases with answers are listed next.
[
  {
    "LINE NOTATION": "CC1(C)S[C@@H]2[C@H](NC(=O)Cc3ccccc3)C(=O)N2[C@H]1C(=O)O",
    "ASSAY TARGET": "Listeria monocytogenes",
    "MIC50 / µg/mL": 0.25
  },
  {
    "LINE NOTATION": "NC[C@H]1O[C@H](O[C@H]2[C@H](O)[C@@H](O[C@H]3O[C@H](CO)[C@@H](O)[C@H](N)[C@H]3O)[C@H](N)C[C@@H]2N)[C@H](N)C[C@@H]1O",
    "ASSAY TARGET": "Listeria monocytogenes",
    "MIC50 / µg/mL": 0.12
  }
]

Would you kindly look at the next entry?
input: Return reported MIC50; argument: `N[C@@H]1CCCCN(c2c(F)cc3c(=O)c(C(=O)O)cn(C4CC4)c3c2Cl)C1`
output: 0.12

====

System: Staphylococcus aureus
Test: Antibacterial activity against non-ciprofloxacin-susceptible and methicillin-susceptible Staphylococcus aureus by CLSI M100-S18 method
Type: functional
compounds and their reported MIC90

Example cases with answers are listed next.
[
  {
    "COMPOUND": "CC[C@H]1OC(=O)[C@H](C)[C@@H](O[C@H]2C[C@@](C)(OC)[C@@H](O)[C@H](C)O2)[C@H](C)[C@@H](O[C@@H]2O[C@H](C)C[C@H](N(C)C)[C@H]2O)[C@](C)(O)C[C@@H](C)CN(C)[C@H](C)[C@@H](O)[C@]1(C)O [AZITHROMYCIN]",
    "MIC90": "> 8 µg/mL"
  },
  {
    "COMPOUND": "NC[C@H]1O[C@H](O[C@H]2[C@H](O)[C@@H](O[C@H]3O[C@H](CO)[C@@H](O)[C@H](N)[C@H]3O)[C@H](N)C[C@@H]2N)[C@H](N)C[C@@H]1O [TOBRAMYCIN]",
    "MIC90": "> 32 µg/mL"
  },
  {
    "COMPOUND": "C[C@H]1COc2c(N3CCN(C)CC3)c(F)cc3c(=O)c(C(=O)O)cn1c23.C[C@H]1COc2c(N3CCN(C)CC3)c(F)cc3c(=O)c(C(=O)O)cn1c23.O [LEVOFLOXACIN]",
    "MIC90": "> 8 µg/mL"
  },
  {
    "COMPOUND": "N[C@@H]1CCCCN(c2c(F)cc3c(=O)c(C(=O)O)cn(C4CC4)c3c2Cl)C1 [BESIFLOXACIN]",
    "MIC90": "4 µg/mL"
  },
  {
    "COMPOUND": "Cc1onc(-c2ccccc2)c1C(=O)N[C@@H]1C(=O)N2[C@@H]1SC(C)(C)[C@@H]2C(=O)O [OXACILLIN]",
    "MIC90": "> 8 µg/mL"
  }
]

Would you kindly look at the next entry?
input: Return reported MIC90; argument: COc1c(N2CCNC(C)C2)c(F)cc2c(=O)c(C(=O)O)cn(C3CC3)c12 (stereo unspecified) [GATIFLOXACIN]
output: > 8 µg/mL

====

compounds and their reported Activity
Test system: Streptococcus pneumoniae
Test: Antibacterial activity against levofloxacin susceptible Streptococcus pneumoniae assessed as percent susceptible isolates by CLSI M100-S18 method
Format: functional

[
  {
    "COMPOUND": "CC1(C)S[C@@H]2[C@H](NC(=O)Cc3ccccc3)C(=O)N2[C@H]1C(=O)O [PENICILLIN G]",
    "Activity": "100%"
  }
]

Would you kindly look at the next entry?
input: Return reported Activity; argument: C[C@H]1COc2c(N3CCN(C)CC3)c(F)cc3c(=O)c(C(=O)O)cn1c23.C[C@H]1COc2c(N3CCN(C)CC3)c(F)cc3c(=O)c(C(=O)O)cn1c23.O [LEVOFLOXACIN]
output: 100%

====

Tested on: Staphylococcus warneri
Assay: Antibacterial activity against Staphylococcus warneri by CLSI M100-S18 method
Assay type: functional
compounds and their reported MIC90
Give just the numeric value; mg/L need not be written.

[
  {
    "COMPOUND": "N[C@@H]1CCCCN(c2c(F)cc3c(=O)c(C(=O)O)cn(C4CC4)c3c2Cl)C1",
    "MIC90, mg/L": 1
  },
  {
    "COMPOUND": "COc1c(N2CCNC(C)C2)c(F)cc2c(=O)c(C(=O)O)cn(C3CC3)c12 (stereo unspecified)",
    "MIC90, mg/L": 4
  }
]

Would you kindly look at the next entry?
input: Return reported MIC90; argument: `NC[C@H]1O[C@H](O[C@H]2[C@H](O)[C@@H](O[C@H]3O[C@H](CO)[C@@H](O)[C@H](N)[C@H]3O)[C@H](N)C[C@@H]2N)[C@H](N)C[C@@H]1O`
output: 8

====

molecules and their reported Activity
Test system: Staphylococcus hominis
Experiment: Antibacterial activity against Staphylococcus hominis assessed as percent susceptible isolates by CLSI M100-S18 method
Assay type: functional

Example cases with answers are listed next.
[
  {
    "MOLECULE": "C[C@H]1COc2c(N3CCN(C)CC3)c(F)cc3c(=O)c(C(=O)O)cn1c23.C[C@H]1COc2c(N3CCN(C)CC3)c(F)cc3c(=O)c(C(=O)O)cn1c23.O",
    "REPORTED MEASUREMENT": "30%"
  },
  {
    "MOLECULE": "Cc1onc(-c2ccccc2)c1C(=O)N[C@@H]1C(=O)N2[C@@H]1SC(C)(C)[C@@H]2C(=O)O",
    "REPORTED MEASUREMENT": "16%"
  },
  {
    "MOLECULE": "CC[C@H]1OC(=O)[C@H](C)[C@@H](O[C@H]2C[C@@](C)(OC)[C@@H](O)[C@H](C)O2)[C@H](C)[C@@H](O[C@@H]2O[C@H](C)C[C@H](N(C)C)[C@H]2O)[C@](C)(O)C[C@@H](C)CN(C)[C@H](C)[C@@H](O)[C@]1(C)O",
    "REPORTED MEASUREMENT": "30%"
  },
  {
    "MOLECULE": "NC[C@H]1O[C@H](O[C@H]2[C@H](O)[C@@H](O[C@H]3O[C@H](CO)[C@@H](O)[C@H](N)[C@H]3O)[C@H](N)C[C@@H]2N)[C@H](N)C[C@@H]1O",
    "REPORTED MEASUREMENT": "16%"
  }
]

Would you kindly look at the next entry?
input: Return reported Activity; argument: COc1c(N2CCNC(C)C2)c(F)cc2c(=O)c(C(=O)O)cn(C3CC3)c12 (stereo unspecified)
output: 32%

====

Tested on: Streptococcus mitis
Experiment: Antibacterial activity against Streptococcus mitis by CLSI M100-S18 method
Type: functional
molecules and their reported MIC90

Example cases with answers are listed next.
[
  {
    "MOLECULE": "CC[C@H]1OC(=O)[C@H](C)[C@@H](O[C@H]2C[C@@](C)(OC)[C@@H](O)[C@H](C)O2)[C@H](C)[C@@H](O[C@@H]2O[C@H](C)C[C@H](N(C)C)[C@H]2O)[C@](C)(O)C[C@@H](C)CN(C)[C@H](C)[C@@H](O)[C@]1(C)O",
    "MEASUREMENT KIND": "MIC90",
    "REPORTED MEASUREMENT": "1 µg/mL"
  },
  {
    "MOLECULE": "CC1(C)S[C@@H]2[C@H](NC(=O)Cc3ccccc3)C(=O)N2[C@H]1C(=O)O",
    "MEASUREMENT KIND": "MIC90",
    "REPORTED MEASUREMENT": "32 µg/mL"
  },
  {
    "MOLECULE": "N[C@@H]1CCCCN(c2c(F)cc3c(=O)c(C(=O)O)cn(C4CC4)c3c2Cl)C1",
    "MEASUREMENT KIND": "MIC90",
    "REPORTED MEASUREMENT": "0.12 µg/mL"
  },
  {
    "MOLECULE": "C[C@H]1COc2c(N3CCN(C)CC3)c(F)cc3c(=O)c(C(=O)O)cn1c23.C[C@H]1COc2c(N3CCN(C)CC3)c(F)cc3c(=O)c(C(=O)O)cn1c23.O",
    "MEASUREMENT KIND": "MIC90",
    "REPORTED MEASUREMENT": "4 µg/mL"
  },
  {
    "MOLECULE": "NC[C@H]1O[C@H](O[C@H]2[C@H](O)[C@@H](O[C@H]3O[C@H](CO)[C@@H](O)[C@H](N)[C@H]3O)[C@H](N)C[C@@H]2N)[C@H](N)C[C@@H]1O",
    "MEASUREMENT KIND": "MIC90",
    "REPORTED MEASUREMENT": "> 8 µg/mL"
  }
]

input: Return reported MIC90; argument: COc1c(N2CCNC(C)C2)c(F)cc2c(=O)c(C(=O)O)cn(C3CC3)c12 (stereo unspecified)
output: 1 µg/mL
